test: Safety test, median lethal dose (LD50), intravenous injection; type: in vivo; details: in vivo, mouse
Known LD50 of a selection of molecules
property.name: LD50

>>> result("COc1ccc(CCN=C=S)cc1")
"100 to 300 mg/kg"
>>> result("Oc1ccc(CCN=C=S)cc1")
"30 to 100 mg/kg"
